- targetDesc: T1, hu-sCD47-6His; extracellular domain of human CD47 antigen with 6His-tag (human)
- T1 construct: also called hCD47-his; soluble hCD47
- assaySummary: SPR Biacore
valueType: pKd
Scale explanation: pKd corresponds to minus log10 of a concentration expressed in moles per litre.

Some solved entries appear below for comparison.
h20-H3-L3Y (candidate 20.28), hIgG4-S228P (antibody, V domains shown, also called H20-VH3-VL3,Y) VH: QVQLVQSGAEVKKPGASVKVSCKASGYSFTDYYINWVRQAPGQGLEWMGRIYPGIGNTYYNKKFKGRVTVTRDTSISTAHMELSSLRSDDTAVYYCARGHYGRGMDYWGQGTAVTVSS VL: EIVLTQSPDSLAVSLGERATINCKSSQSLLNSIDQKNYLAWYQQKAGQSPKLLIYYASTKESGVPDRFSGSGSGTDFTLTIDSLQAEDVAVYYCQQHYSTPWTFGGGTKVEIKR
8.63
h20-H4-L5Y (candidate 20.30), hIgG4-S228P (antibody, V domains shown, also called H20-VH4-VL5,Y) VH: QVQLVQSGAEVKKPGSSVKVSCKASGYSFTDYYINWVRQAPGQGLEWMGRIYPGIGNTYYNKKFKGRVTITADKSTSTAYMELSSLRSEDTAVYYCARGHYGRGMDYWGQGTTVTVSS VL: DIVMTQSPDSLAVSLGERATINCKSSQSLLNSIDQKNYLAWYQQKPGQPPKLLIYYASTKESGVPDRFSGSGSGTDFTLTISGLQAEDVAVYFCQQHYSTPWTFGGGTKVEIRR
8.55
h20-H3-L2Y (candidate 20.27), hIgG4-S228P (antibody, V domains shown, also called H20-VH3-VL2,Y) VH: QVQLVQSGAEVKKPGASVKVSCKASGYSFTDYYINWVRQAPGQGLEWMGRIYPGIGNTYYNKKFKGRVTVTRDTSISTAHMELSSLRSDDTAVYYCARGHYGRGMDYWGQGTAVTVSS VL: DIVMTQSPDSLAVSLGERATINCKSSQSLLNSIDQKNYLAWYQQKPGQPPKLLIYYASTKESGVPDRFSGSGSGTDFTLTISSLQAEDVAVYYCQQHYSTPWTFGGGTKVEIKR
8.69

Below: the item to evaluate.
Incoming: Data request, read-out pKd, for h20-H4-L4Y (candidate 20.29), hIgG4-S228P (antibody, V domains shown, also called H20-VH4-VL4,Y) VH: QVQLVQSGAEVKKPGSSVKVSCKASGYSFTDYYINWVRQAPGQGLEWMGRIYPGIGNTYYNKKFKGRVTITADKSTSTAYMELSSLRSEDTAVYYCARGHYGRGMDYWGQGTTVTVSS VL: DIVMTQSPDSLAVSLGERATINCKSSQSLLNSIDQKNYLAWYQQKPGQPPKLLIYYASTKESGVPDRFSGSGSGTDFTLTISSLQAEDVAVYFCQQHYSTPWTFGGGAKVEIKR
Outgoing: 8.58
